species: Rattus norvegicus; test: Open TG-GATES - Regimen: Single; type: toxicity, organism-based, Sprague-Dawley; design: regimen Single, gender Male, age 6 weeks; details: in vivo, po, 300 mg/kg, 3 h, tissue Blood, route gavage, dose level Middle
Use 40% as the dividing line for Ht, with the line itself on the true (1) side and lower values as false (0).

SMILES_INPUT	CATEGORY
CN/C(=N/CCSCc1nc[nH]c1C)NC#N	false (0)
CNC(=C[N+](=O)[O-])NCCSCc1ccc(CN(C)C)o1	false (0)
Cc1nnc2n1-c1ccc(Cl)cc1C(c1ccccc1Cl)=NC2	true (1)
O=C(OC[C@H]1O[C@@H](OC(=O)c2cc(O)c(O)c(OC(=O)c3cc(O)c(O)c(O)c3)c2)[C@H](OC(=O)c2cc(O)c(O)c(OC(=O)c3cc(O)c(O)c(O)c3)c2)[C@@H](OC(=O)c2cc(O)c(O)c(OC(=O)c3cc(O)c(O)c(O)c3)c2)[C@@H]1OC(=O)c1cc(O)c(O)c(OC(=O)c2cc(O)c(O)c(O)c2)c1)c1cc(O)c(O)c(OC(=O)c2cc(O)c(O)c(O)c2)c1	false (0)

* * *

The entries below come with measured Ca values attached.
species: Rattus norvegicus; test: Open TG-GATES - Regimen: Single; type: toxicity, organism-based, Sprague-Dawley; set-up: regimen Single, gender Male, age 6 weeks; conditions: in vivo, po, 0 mg/kg, 6 h, tissue Plasma, route gavage, dose level Control

COMPOUND	Ca, mg/dL
CN(C)CCC(c1ccc(Cl)cc1)c1ccccn1 (configuration not stated) [CHLORPHENIRAMINE]	10.8
NC1=NC(=O)C(c2ccccc2)O1 (configuration not stated) [PEMOLINE]	10.6
Nc1c2c(nc3ccccc13)CCCC2 [TACRINE]	10.6
O=C(OC[C@H]1O[C@@H](OC(=O)c2cc(O)c(O)c(OC(=O)c3cc(O)c(O)c(O)c3)c2)[C@H](OC(=O)c2cc(O)c(O)c(OC(=O)c3cc(O)c(O)c(O)c3)c2)[C@@H](OC(=O)c2cc(O)c(O)c(OC(=O)c3cc(O)c(O)c(O)c3)c2)[C@@H]1OC(=O)c1cc(O)c(O)c(OC(=O)c2cc(O)c(O)c(O)c2)c1)c1cc(O)c(O)c(OC(=O)c2cc(O)c(O)c(O)c2)c1 [TANNIC ACID]	10.8
CCOc1ccc(NC(C)=O)cc1 [PHENACETIN]	11
CCCc1cc(=O)[nH]c(=S)[nH]1 [PROPYLTHIOURACIL]	10.7
CN/C(=N/CCSCc1nc[nH]c1C)NC#N [CIMETIDINE]	10.7
Brc1ccccc1 [BROMOBENZENE]	11
CN1C(=O)CCS(=O)(=O)C1c1ccc(Cl)cc1 (configuration not stated) [CHLORMEZANONE]	11.6
CC(C)NNC(=O)c1ccncc1 [IPRONIAZID]	10.6
CNC(=C[N+](=O)[O-])NCCSCc1ccc(CN(C)C)o1 [RANITIDINE]	10.7
Cc1nnc2n1-c1ccc(Cl)cc1C(c1ccccc1Cl)=NC2 [TRIAZOLAM]	10.7

* * *

organism: Rattus norvegicus; test: Open TG-GATES - Regimen: Daily Repeat; assay type: toxicity, organism-based, Sprague-Dawley; parameters: regimen Daily Repeat, gender Male, age 6 weeks; details: in vivo, po, 1000 mg/kg, […], tissue Plasma, route gavage, dose level High, time 14 day

MOLECULE	GLC [mg/dL]
CNC(=C[N+](=O)[O-])NCCSCc1ccc(CN(C)C)o1 [RANITIDINE]	193
COC(=O)C1=C(C)NC(C)=C(C(=O)OC)C1c1ccccc1[N+](=O)[O-] [NIFEDIPINE]	172.8
CN/C(=N/CCSCc1nc[nH]c1C)NC#N [CIMETIDINE]	213.4
O=C(OC[C@H]1O[C@@H](OC(=O)c2cc(O)c(O)c(OC(=O)c3cc(O)c(O)c(O)c3)c2)[C@H](OC(=O)c2cc(O)c(O)c(OC(=O)c3cc(O)c(O)c(O)c3)c2)[C@@H](OC(=O)c2cc(O)c(O)c(OC(=O)c3cc(O)c(O)c(O)c3)c2)[C@@H]1OC(=O)c1cc(O)c(O)c(OC(=O)c2cc(O)c(O)c(O)c2)c1)c1cc(O)c(O)c(OC(=O)c2cc(O)c(O)c(O)c2)c1 [TANNIC ACID]	204.2
CCOc1ccc(NC(C)=O)cc1 [PHENACETIN]	168.8
Cc1nnc2n1-c1ccc(Cl)cc1C(c1ccccc1Cl)=NC2 [TRIAZOLAM]	188.4

* * *

organism: Rattus norvegicus; experiment: Open TG-GATES - Regimen: Single; assay type: toxicity, organism-based, Sprague-Dawley; design: regimen Single, gender Male, age 6 weeks; conditions: in vivo, po, 300 mg/kg, 24 h, tissue Blood, route gavage, dose level Middle
The entries below come with measured WBC values attached.
MEASURED_QUANTITY: WBC (x10_2/uL)

SMILES_INPUT	UNIT_SYMBOL	TEST_RESULT
O=C(OC[C@H]1O[C@@H](OC(=O)c2cc(O)c(O)c(OC(=O)c3cc(O)c(O)c(O)c3)c2)[C@H](OC(=O)c2cc(O)c(O)c(OC(=O)c3cc(O)c(O)c(O)c3)c2)[C@@H](OC(=O)c2cc(O)c(O)c(OC(=O)c3cc(O)c(O)c(O)c3)c2)[C@@H]1OC(=O)c1cc(O)c(O)c(OC(=O)c2cc(O)c(O)c(O)c2)c1)c1cc(O)c(O)c(OC(=O)c2cc(O)c(O)c(O)c2)c1	x10_2/uL	114.2
CNC(=C[N+](=O)[O-])NCCSCc1ccc(CN(C)C)o1	x10_2/uL	104.2
COC(=O)C1=C(C)NC(C)=C(C(=O)OC)C1c1ccccc1[N+](=O)[O-]	x10_2/uL	95.9
CN/C(=N/CCSCc1nc[nH]c1C)NC#N	x10_2/uL	86.6
Cc1nnc2n1-c1ccc(Cl)cc1C(c1ccccc1Cl)=NC2	x10_2/uL	94.8

* * *

The entries below come with measured AST values attached.
species: Rattus norvegicus; experiment: Open TG-GATES - Regimen: Single; format: toxicity, organism-based, Sprague-Dawley; parameters: regimen Single, gender Male, age 6 weeks; settings: in vivo, po, 1000 mg/kg, 6 h, tissue Plasma, route gavage, dose level High

COMPOUND	AST, IU/L
COC(=O)C1=C(C)NC(C)=C(C(=O)OC)C1c1ccccc1[N+](=O)[O-] [NIFEDIPINE]	83
CN/C(=N/CCSCc1nc[nH]c1C)NC#N [CIMETIDINE]	65.8
CNC(=C[N+](=O)[O-])NCCSCc1ccc(CN(C)C)o1 [RANITIDINE]	63.8
O=C(OC[C@H]1O[C@@H](OC(=O)c2cc(O)c(O)c(OC(=O)c3cc(O)c(O)c(O)c3)c2)[C@H](OC(=O)c2cc(O)c(O)c(OC(=O)c3cc(O)c(O)c(O)c3)c2)[C@@H](OC(=O)c2cc(O)c(O)c(OC(=O)c3cc(O)c(O)c(O)c3)c2)[C@@H]1OC(=O)c1cc(O)c(O)c(OC(=O)c2cc(O)c(O)c(O)c2)c1)c1cc(O)c(O)c(OC(=O)c2cc(O)c(O)c(O)c2)c1 [TANNIC ACID]	68.8
Cc1nnc2n1-c1ccc(Cl)cc1C(c1ccccc1Cl)=NC2 [TRIAZOLAM]	67.4

* * *

The entries below come with measured Cl values attached.
species: Rattus norvegicus; assay: Open TG-GATES - Regimen: Single; assay type: toxicity, organism-based, Sprague-Dawley; design: regimen Single, gender Male, age 6 weeks; details: in vivo, po, 1000 mg/kg, 6 h, tissue Plasma, route gavage, dose level High
MEASURED_QUANTITY: Cl (meq/L)

SMILES_INPUT	TEST_RESULT
CNC(=C[N+](=O)[O-])NCCSCc1ccc(CN(C)C)o1	104
O=C(OC[C@H]1O[C@@H](OC(=O)c2cc(O)c(O)c(OC(=O)c3cc(O)c(O)c(O)c3)c2)[C@H](OC(=O)c2cc(O)c(O)c(OC(=O)c3cc(O)c(O)c(O)c3)c2)[C@@H](OC(=O)c2cc(O)c(O)c(OC(=O)c3cc(O)c(O)c(O)c3)c2)[C@@H]1OC(=O)c1cc(O)c(O)c(OC(=O)c2cc(O)c(O)c(O)c2)c1)c1cc(O)c(O)c(OC(=O)c2cc(O)c(O)c(O)c2)c1	105.8
CN/C(=N/CCSCc1nc[nH]c1C)NC#N	103.6
COC(=O)C1=C(C)NC(C)=C(C(=O)OC)C1c1ccccc1[N+](=O)[O-]	97.2
Cc1nnc2n1-c1ccc(Cl)cc1C(c1ccccc1Cl)=NC2	103.2

* * *

organism: Rattus norvegicus; assay: Open TG-GATES - Regimen: Single; format: toxicity, organism-based, Sprague-Dawley; set-up: regimen Single, gender Male, age 6 weeks; conditions: in vivo, po, 300 mg/kg, 9 h, tissue Plasma, route gavage, dose level Middle
MEASURED_QUANTITY: K (meq/L)

SMILES_INPUT	TEST_RESULT
Cc1nnc2n1-c1ccc(Cl)cc1C(c1ccccc1Cl)=NC2	4.4
CNC(=C[N+](=O)[O-])NCCSCc1ccc(CN(C)C)o1	3.6
O=C(OC[C@H]1O[C@@H](OC(=O)c2cc(O)c(O)c(OC(=O)c3cc(O)c(O)c(O)c3)c2)[C@H](OC(=O)c2cc(O)c(O)c(OC(=O)c3cc(O)c(O)c(O)c3)c2)[C@@H](OC(=O)c2cc(O)c(O)c(OC(=O)c3cc(O)c(O)c(O)c3)c2)[C@@H]1OC(=O)c1cc(O)c(O)c(OC(=O)c2cc(O)c(O)c(O)c2)c1)c1cc(O)c(O)c(OC(=O)c2cc(O)c(O)c(O)c2)c1	5.1
COC(=O)C1=C(C)NC(C)=C(C(=O)OC)C1c1ccccc1[N+](=O)[O-]	5
CN/C(=N/CCSCc1nc[nH]c1C)NC#N	3.9
